Tested on: Leishmania donovani
Experiment: Antileishmanial activity against Leishmania donovani MHOM/SD/1962/1S-Cl2d infected THP1 cells assessed as inhibition of intracellular […] amastigote after 48 hrs at 50 uM by Bright-Glo luciferase assay
Format: functional, organism-based
Details: THP-1, 48 h
property_measured: IC50 (µM)

structure | unit_spec | IC50
O=C(Nc1cccc(-c2nc3ccccc3[nH]2)c1)c1cccs1 | µM | 25.1
Cn1c(-c2cccc(NC(=O)c3cccs3)c2)nc2ccccc21 | µM | 22.1
O=C(Nc1ccccc1-c1nc2ccccc2[nH]1)NC1CCCCC1 | µM | 7.6

(P) Cc1cccc2[nH]c(-c3cccc(NC(=O)c4cccs4)c3)nc12
(Q) O=C(Nc1cccc(-c2nc3ccccc3[nH]2)c1)C1CCCCC1
Which entry shows the lesser value of IC50 here, P or Q ? Your answer should be the label attached to the chosen record.
Q
(Q: 8.8 µM, P: 17.8 µM)

(A) O=C(Nc1cccc(-c2nc3ccccc3[nH]2)c1)c1ccc(F)cc1
(B) Cc1ccc2[nH]c(-c3cccc(NC(=O)c4cccs4)c3)nc2c1
Which entry shows the lesser value of IC50 here, A or B ? Your answer should be the label attached to the chosen record.
B

###

Assay: Cytotoxicity against mouse NIH/3T3 cells assessed as viability at 15 uM after 48 hrs by alamarBlue assay
Assay type: cell-based, NIH3T3
Conditions: read-out: Activity
Entries and their measured viability at 48 h, 15 µM follow.
Report only the number, with the unit % understood.

Which viability at 48 h, 15 µM is reported for this molecule? O=C(Nc1cccc(-c2nc3ccccc3[nH]2)c1)c1ccc(-c2ccccc2)cc1
88.7

# iterate: O=C(Nc1ccccc1-c1nc2ccccc2[nH]1)NC1CCCCC1
-4.4

# iterate: Cn1c(-c2cccc(NC(=O)c3cccs3)c2)nc2ccccc21
-12.9

# iterate: Cc1cccc2[nH]c(-c3cccc(NC(=O)c4cccs4)c3)nc12
5.3

# iterate: O=C(Nc1cccc(-c2nc3ccccc3[nH]2)c1)C1CCCCC1
23.8

###

Tested on: Leishmania donovani
Assay: Antileishmanial activity against axenic amastigote Leishmania donovani MHOM/SD/1962/1S-Cl2d assessed as inhibition of parasite growth after 24 hrs at 15 uM by alamarBlue assay
Assay type: functional
Entries and their measured inhibition at 15 µM follow.
Report only the number, with the unit % understood.

Example compounds with recorded inhibition at 15 µM:
structure | unit_spec | inhibition at 15 µM
CC(=O)Nc1cccc(-c2nc3ccccc3[nH]2)c1 | % | 21
Cc1cccc(C(=O)Nc2cccc(-c3nc4ccccc4[nH]3)c2)c1 | % | 52
O=C(Nc1cccc(-c2nc3ccccc3[nH]2)c1)c1ccsc1 | % | 67

Which inhibition at 15 µM is reported for this compound? O=C(Nc1cccc(-c2nc3ccccc3[nH]2)c1)c1ccc(Cl)cc1
41

# iterate: O=C(Nc1cccc(-c2nc3ccccc3[nH]2)c1)NC1CCCCC1
90

# iterate: O=C(Nc1cccc(-c2nc3ccccc3[nH]2)c1)c1cccc(Cl)c1
60

###

Entries and their measured inhibition at 15 µM follow.
Tested on: Leishmania donovani
Test: Antileishmanial activity against axenic amastigote Leishmania donovani MHOM/SD/1962/1S-Cl2d assessed as inhibition of parasite growth after 24 hrs at 15 uM by alamarBlue assay
Type: functional
Report only the number, with the unit % understood.

Example compounds with recorded inhibition at 15 µM:
structure | unit_spec | inhibition at 15 µM
O=C(Nc1cccc(-c2nc3ccccc3[nH]2)c1)c1ccc(F)cc1 | % | 50
O=C(Nc1cccc(-c2nc3cc(Cl)ccc3[nH]2)c1)c1cccs1 | % | 57
O=C(Nc1cccc(-c2nc3ccccc3[nH]2)c1)c1cccc(C(F)(F)F)c1 | % | 68
COc1cc(OC)cc(C(=O)Nc2cccc(-c3nc4ccccc4[nH]3)c2)c1 | % | 58
CCCCC(=O)Nc1cccc(-c2nc3ccccc3[nH]2)c1 | % | 67
COC(=O)c1cccc(C(=O)Nc2cccc(-c3nc4ccccc4[nH]3)c2)c1 | % | 74

The record that follows has no inhibition at 15 µM shown yet.
Which inhibition at 15 µM is reported for this compound? O=C(Nc1cccc(-c2nc3ccccc3[nH]2)c1)c1cc(Cl)cc(Cl)c1
44
